B1: FBXO39 (parent)
chain: RVFKARIYTNRYETNEEDKTLQEI

Variants of: B1
Test Method Notes: protein stability index of a GFP-peptide fusion (GPS, HEK-293T) (PSI 1-6); higher = more stable;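 note: lentivirally expressed fusions sorted by FACS into six bins by GFP to DsRed ratio, PSI derived from sequencing read proportions per bin multiplied by bin number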
Test Settings: c terminus: a fixed tail appended

Variant Name | protein stability index
E13S | 2.81
K19E | 3.84
Q22D | 3
K19M | 2.3
T9H | 2.47
I7M | 2.67
K19C | 3.04
R6H | 2.83
T9F | 1.82
I7Y | 2.39
T14M | 3.75
E13D | 2.48
N15V | 2.12
K19P | 2.91
F3I | 4.61
K19I | 2.58
R6M | 1.99
N15L | 2.27
Y8C | 3.78
F3D | 5.46
N15K | 2.28
R1H | 3.35
I7D | 4.26
N15P | 3.01
N10G | 2.75
Q22Y | 2.6
R1S | 2.72
R1V | 1.66
V2C | 2.87
E16C | 2.38
R1G | 3.42
K19R | 4
I7E | 3.24
A5N | 3.95
T20L | 2.38
E23D | 2.58
T9A | 3.18
K4T | 4.72
V2W | 2.45
L21N | 3.26
Y8V | 3.08
R1F | 1.66
K19T | 2.79
D18N | 2.25
V2L | 3.19
A5G | 3.1

Value source: the supplement of paper PMC10567573
